Where do these numbers come from? They come from paper PMC6002741.

Consider molecules characterized by their IC50 with TRPM4 (Homo sapiens).
Sequence (Q8TD43 whole entry): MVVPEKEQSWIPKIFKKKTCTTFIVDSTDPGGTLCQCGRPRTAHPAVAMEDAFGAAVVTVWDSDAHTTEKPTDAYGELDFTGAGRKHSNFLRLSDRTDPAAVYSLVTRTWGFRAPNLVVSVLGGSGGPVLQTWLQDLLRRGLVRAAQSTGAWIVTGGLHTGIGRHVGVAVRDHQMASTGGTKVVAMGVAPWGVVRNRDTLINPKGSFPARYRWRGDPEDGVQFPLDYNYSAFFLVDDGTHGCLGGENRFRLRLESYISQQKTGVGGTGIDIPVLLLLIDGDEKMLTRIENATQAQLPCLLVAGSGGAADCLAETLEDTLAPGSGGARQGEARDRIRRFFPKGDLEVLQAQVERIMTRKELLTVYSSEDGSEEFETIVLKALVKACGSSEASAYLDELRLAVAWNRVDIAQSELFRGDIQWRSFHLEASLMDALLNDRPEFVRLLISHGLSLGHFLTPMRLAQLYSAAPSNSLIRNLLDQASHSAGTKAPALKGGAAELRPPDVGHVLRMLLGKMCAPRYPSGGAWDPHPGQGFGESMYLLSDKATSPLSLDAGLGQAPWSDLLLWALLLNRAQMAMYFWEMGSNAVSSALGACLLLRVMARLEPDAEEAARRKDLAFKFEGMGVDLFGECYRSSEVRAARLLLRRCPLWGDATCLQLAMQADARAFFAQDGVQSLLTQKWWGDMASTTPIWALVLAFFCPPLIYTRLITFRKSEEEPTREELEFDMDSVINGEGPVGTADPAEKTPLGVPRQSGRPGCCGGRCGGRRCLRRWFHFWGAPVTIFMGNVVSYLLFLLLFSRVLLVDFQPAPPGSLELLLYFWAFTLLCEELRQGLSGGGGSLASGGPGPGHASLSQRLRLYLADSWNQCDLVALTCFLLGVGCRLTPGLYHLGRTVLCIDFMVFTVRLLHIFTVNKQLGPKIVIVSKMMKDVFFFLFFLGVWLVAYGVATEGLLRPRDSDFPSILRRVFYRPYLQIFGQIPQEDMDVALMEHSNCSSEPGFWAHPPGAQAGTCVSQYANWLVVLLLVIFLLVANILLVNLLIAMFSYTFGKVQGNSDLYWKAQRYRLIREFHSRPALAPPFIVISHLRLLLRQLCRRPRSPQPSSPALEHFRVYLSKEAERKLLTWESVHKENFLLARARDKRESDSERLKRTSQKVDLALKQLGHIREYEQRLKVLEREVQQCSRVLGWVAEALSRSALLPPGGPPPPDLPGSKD
EXPERIMENTAL READOUT: IC50

- MOLECULE: "O=C(COc1ccccc1Cl)Nc1cc(Br)ccc1C(=O)O [Compound 11]"
  ASSAYED SYSTEM: "TRPM4 (Homo sapiens)"
  EXPERIMENTAL READOUT: "IC50"
  RESULT: "1.6 µM"
- MOLECULE: "Cc1cc(Cl)ccc1OC(C)C(=O)Nc1cc(Cl)ccc1C(=O)O (stereo not shown) [Compound 4]"
  ASSAYED SYSTEM: "TRPM4 (Homo sapiens)"
  EXPERIMENTAL READOUT: "IC50"
  RESULT: "1 µM"
- MOLECULE: "Oc1cc2ccccc2c2ccccc12 [9-phenanthrol, reference compound]"
  ASSAYED SYSTEM: "TRPM4 (Homo sapiens)"
  EXPERIMENTAL READOUT: "IC50"
  RESULT: "17 µM"
- MOLECULE: "O=C(O)c1ccccc1Nc1cccc(C(F)(F)F)c1 [FFA, flufenamic acid, reference compound]"
  ASSAYED SYSTEM: "TRPM4 (Homo sapiens)"
  EXPERIMENTAL READOUT: "IC50"
  RESULT: "9.2 µM"
